- ASSAY REMARKS: MRT in ICR mouse at 50 mg/kg, po
- Assay type: ADME, organism-based
- CONDITION PARAMETERS: in vivo
READOUT TYPE: MRT (h)
Dear colleague, please return just the value in h, with no unit written.

Report MRT, nothing else, for this compound: `CC(C)[C@H](N)C(=O)OC1CCN(S(=O)(=O)c2cc(C(=O)Nc3cc(F)c(F)c(F)c3)ccc2F)CC1`
0.97

Report MRT, nothing else, for this compound: `O=C(Nc1cc(F)c(F)c(F)c1)c1ccc(F)c(S(=O)(=O)N2CCC(O)CC2)c1`
10.7

* * *

For each of the molecules below, state its selectivity ratio.
- ASSAY REMARKS: Selectivity index, ratio of CC50 for human HepG2.2.15 cells to IC50 for Hepatitis B virus
- Format: toxicity
- CONDITION PARAMETERS: read-out: Ratio CC50/IC50

Report selectivity ratio, nothing else, for this molecule: `C[C@H](N)C(=O)OC1CCN(S(=O)(=O)c2cc(C(=O)Nc3cc(F)c(F)c(F)c3)ccc2F)CC1`
17.2

Report selectivity ratio, nothing else, for this molecule: `NCC(=O)OC1CCN(S(=O)(=O)c2cc(C(=O)Nc3cc(F)c(F)c(F)c3)ccc2F)CC1`
> 7.1

Report selectivity ratio, nothing else, for this molecule: `O=C(Nc1cc(F)c(F)c(F)c1)c1ccc(F)c(S(=O)(=O)N2CCC(O)CC2)c1`
18.5

Report selectivity ratio, nothing else, for this molecule: `N[C@@H](Cc1ccccc1)C(=O)OC1CCN(S(=O)(=O)c2cc(C(=O)Nc3cc(F)c(F)c(F)c3)ccc2F)CC1`
> 28.6

Report selectivity ratio, nothing else, for this molecule: `CC(C)[C@H](N)C(=O)OC1CCN(S(=O)(=O)c2cc(C(=O)Nc3cc(F)c(F)c(F)c3)ccc2F)CC1`
> 29.4

Report selectivity ratio, nothing else, for this molecule: `CC(C)(C)[C@H](N)C(=O)OC1CCN(S(=O)(=O)c2cc(C(=O)Nc3cc(F)c(F)c(F)c3)ccc2F)CC1`
> 17.9

Report selectivity ratio, nothing else, for this molecule: `CC(C)C[C@H](N)C(=O)OC1CCN(S(=O)(=O)c2cc(C(=O)Nc3cc(F)c(F)c(F)c3)ccc2F)CC1`
20.6

Report selectivity ratio, nothing else, for this molecule: CCC(C)[C@H](N)C(=O)OC1CCN(S(=O)(=O)c2cc(C(=O)Nc3cc(F)c(F)c(F)c3)ccc2F)CC1 (stereo partly drawn)
> 26.3

* * *

- ASSAY REMARKS: Tmax in ICR mouse at 50 mg/kg, po
- Assay type: ADME, organism-based
- CONDITION PARAMETERS: in vivo
For each of the compounds below, state its Tmax.
Dear colleague, please return just the value in min, with no unit written.

Report Tmax, nothing else, for this compound: `CC(C)[C@H](N)C(=O)OC1CCN(S(=O)(=O)c2cc(C(=O)Nc3cc(F)c(F)c(F)c3)ccc2F)CC1`
15

Report Tmax, nothing else, for this compound: `O=C(Nc1cc(F)c(F)c(F)c1)c1ccc(F)c(S(=O)(=O)N2CCC(O)CC2)c1`
64.8

Where do these numbers come from? They come from ChEMBL document CHEMBL4619714.
